Tested on: PIK3C2G
Stated conditions: concentration: 1 μM,replicates: in singlicate; n = 1;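 further: KINOMEscan kinase panel screen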
If the reported %Inh equals or exceeds 5%, assign yes. If not, assign no.

> print(dat)
                                   molecule  class.label
1  C[C@@H]1CCN(C(=O)CC#N)C[C@@H]1N(C)c1ncnc2[nH]ccc12           no
2  O=C(NCCNc1ccnc(NCc2ccc(F)cc2)n1)c1cc2ccccc2s1           no
3  CCN(CC)CCOc1ccc(Nc2ncc3cc(-c4c(Cl)cccc4Cl)c(=O)n(C)c3n2)cc1          yes
4  Cl.Oc1cc(-c2nc(-c3ccccc3)[nH]c2-c2ccncc2)ccc1Cl          yes
5  CC(C)N1C(=O)Cc2cc(Nc3ncc(C(F)(F)F)c(NCc4cccc(S(C)(=O)=O)c4)n3)ccc21          yes
6  NC(=O)c1cc(-c2ccccc2)cc2c(C3CCNCC3)c[nH]c12           no
7  Cl.Cl.Nc1nc(-c2ccc3c(N)n[nH]c3c2)cc(N2CCCC(NC(=O)c3ccccc3)C2)n1 (stereo not drawn)          yes
8   CC(C)Nc1cc(-c2ccc3c(N)n[nH]c3c2)nc(N)n1           no

---

Test system: NEK7
Stated conditions: concentration: 1 μM,replicates: in singlicate; n = 1
criterion met if %Inh is below 3%. criterion not met if not; exact matches included in criterion not met.

> print(dat)
                                    compound        class.label
 1  CCN(CC)CCCCNc1ncc2cc(-c3c(Cl)cccc3Cl)c(NC(=O)NC(C)(C)C)nc2n1      criterion met
 2  COc1ccc(C[C@@H](CN)NC(=O)c2cc(Br)c(-c3ccnc4[nH]ccc34)s2)cc1.Cl.Cl      criterion met
 3  C[C@@H](Oc1cc(-c2cnn(C3CCNCC3)c2)cnc1N)c1c(Cl)ccc(F)c1Cl  criterion not met
 4  CN(C)CC(O)COc1ccc(Nc2nccc(-c3cnn4nc(N5CCOCC5)ccc34)n2)cc1 (centres unmarked)  criterion not met
 5  C[C@@H]1CCN(C(=O)CC#N)C[C@@H]1N(C)c1ncnc2[nH]ccc12  criterion not met
 6  CCN(CC)CCOc1ccc(Nc2ncc3cc(-c4c(Cl)cccc4Cl)c(=O)n(C)c3n2)cc1      criterion met
 7  Cl.Cl.Nc1nc(-c2ccc3c(N)n[nH]c3c2)cc(N2CCCC(NC(=O)c3ccccc3)C2)n1 (centres unmarked)      criterion met
 8  Cl.Cl.NC[C@H](CC1CCCCC1)NC(=O)c1cc(Br)c(-c2ccnc3[nH]ccc23)s1      criterion met
 9  O=C(NCCCN1CCOC1=O)c1cnc(NCc2cc(Cl)ccc2Cl)nc1NC1CCCC1  criterion not met
10  CCn1c(-c2nonc2N)nc2c(C#CC(C)(C)O)nc(OCCN)cc21.Cl.Cl      criterion met

---

System: ITK
Stated conditions: concentration: 1 μM,replicates: in singlicate; n = 1
Property: %Inh (%)

> print(dat)
                                        mol  property  measurement
1  Cc1ccc(-n2nc(C(C)(C)C)cc2NC(=O)Nc2ccc(OCCN3CCOCC3)c3ccccc23)cc1      %Inh           18
2  C[C@H]1Oc2cc(cnc2N)-c2c(nn(C)c2C#N)CN(C)C(=O)c2ccc(F)cc21      %Inh           10
3  C=CC(=O)Nc1cc2c(Nc3ccc(F)c(Cl)c3)ncnc2cc1OCCCN1CCOCC1      %Inh           35
4  CCn1c(-c2nonc2N)nc2c(C#CC(C)(C)O)nc(OCCN)cc21.Cl.Cl      %Inh           17
5  Cl.Oc1cc(-c2nc(-c3ccccc3)[nH]c2-c2ccncc2)ccc1Cl      %Inh           10
6   CC(C)Nc1cc(-c2ccc3c(N)n[nH]c3c2)nc(N)n1      %Inh           13
7  Cc1occc1-c1nc(N)c(OC[C@@H](N)Cc2c[nH]c3ccccc23)cc1-c1cc2c(C)n[nH]c2cn1      %Inh           13
8  NC(=O)c1cc(-c2ccccc2)cc2c(C3CCNCC3)c[nH]c12      %Inh           19

---

Test system: CAMK2G
Stated conditions: concentration: 1 μM,replicates: in singlicate; n = 1
%Inh reference
Property: %Inh (%)

> print(dat)
                                        mol  property  measurement
1  CN(C)CCOc1ccc(-c2cc(-c3c[nH]nc3-c3ccccn3)ccn2)cc1      %Inh            0
2  O=C(NCCNc1ccnc(NCc2ccc(F)cc2)n1)c1cc2ccccc2s1      %Inh            3
3  Cc1occc1-c1nc(N)c(OC[C@@H](N)Cc2c[nH]c3ccccc23)cc1-c1cc2c(C)n[nH]c2cn1      %Inh           48
4  C=CC(=O)Nc1cc2c(Nc3ccc(F)c(Cl)c3)ncnc2cc1OCCCN1CCOCC1      %Inh           15
5  Cc1ccc(-n2nc(C(C)(C)C)cc2NC(=O)Nc2ccc(OCCN3CCOCC3)c3ccccc23)cc1      %Inh            3
6  Cc1n[nH]c2ccc(-c3cc(OC[C@@H](N)Cc4ccccc4)cnc3-c3ccoc3)cc12.O=C(O)C(F)(F)F.O=C(O)C(F)(F)F      %Inh           31
7  Cc1cc2cn[nH]c2cc1-c1cccc2c(N)c(C(N)=O)nnc12      %Inh           15
8  Nc1nc(Nc2ccccc2)cc(-c2ccc3c(N)n[nH]c3c2)n1      %Inh            0

---

System: KIT
Stated conditions: concentration: 1 μM,replicates: in singlicate; n = 1
If the reported %Inh equals or exceeds 9%, assign label 1. If not, assign label 0.

> print(dat)
                                        mol  target.or.test.system  class.label
1  Cc1cc(C(=O)Nc2ccc(Oc3ccc4nc(NC(=O)C5CC5)cn4n3)cc2)nn1-c1ccccc1                    KIT      label 1
2  CCn1c(-c2nonc2N)nc2c(C#CC(C)(C)O)nc(OCCN)cc21.Cl.Cl                    KIT      label 0
3  Cc1cc2cn[nH]c2cc1-c1cccc2c(N)c(C(N)=O)nnc12                    KIT      label 0
4  Cl.Oc1cc(-c2nc(-c3ccccc3)[nH]c2-c2ccncc2)ccc1Cl                    KIT      label 1

---

Tested on: GAK
Stated conditions: concentration: 1 μM,replicates: in singlicate; n = 1
1 (yes) if %Inh is below 40%. 0 (no) if not; exact matches included in 0 (no).

> print(dat)
                                   compound  class.label
1  Cl.Oc1cc(-c2nc(-c3ccccc3)[nH]c2-c2ccncc2)ccc1Cl [SB-386023]       0 (no)
2  C[C@@H]1CCN(C(=O)CC#N)C[C@@H]1N(C)c1ncnc2[nH]ccc12      1 (yes)
3  Cc1occc1-c1nc(N)c(OC[C@@H](N)Cc2c[nH]c3ccccc23)cc1-c1cc2c(C)n[nH]c2cn1 [GSK1660450]       0 (no)
4  C[C@H]1Oc2cc(cnc2N)-c2c(nn(C)c2C#N)CN(C)C(=O)c2ccc(F)cc21      1 (yes)
5  CCN(CC)CCCCNc1ncc2cc(-c3c(Cl)cccc3Cl)c(NC(=O)NC(C)(C)C)nc2n1       0 (no)
6  CN(C)CCOc1ccc(-c2cc(-c3c[nH]nc3-c3ccccn3)ccn2)cc1 [GW835314]       0 (no)
7  CCN(CC)CCOc1ccc(Nc2ncc3cc(-c4c(Cl)cccc4Cl)c(=O)n(C)c3n2)cc1 [SB-601273]       0 (no)
8  Cl.Cl.Nc1nc(-c2ccc3c(N)n[nH]c3c2)cc(N2CCCC(NC(=O)c3ccccc3)C2)n1 (centres unmarked) [GSK2286775]      1 (yes)

---

%Inh reference
Test system: WEE2
Stated conditions: concentration: 1 μM,replicates: in singlicate; n = 1
Property: %Inh

> print(dat)
                                   compound  target.or.test.system  property  measurement
1  C[C@@H](Oc1cc(-c2cnn(C3CCNCC3)c2)cnc1N)c1c(Cl)ccc(F)c1Cl                   WEE2      %Inh           0%
2  NC(=O)c1cc(-c2ccccc2)cc2c(C3CCNCC3)c[nH]c12 [GSK301362]                   WEE2      %Inh          11%
3  CC(C)Nc1cc(-c2ccc3c(N)n[nH]c3c2)nc(N)n1 [GSK2221681]                   WEE2      %Inh           0%
4  Cc1ccc(-n2nc(C(C)(C)C)cc2NC(=O)Nc2ccc(OCCN3CCOCC3)c3ccccc23)cc1 [GW839464]                   WEE2      %Inh          14%
5  CCN(CC)CCOc1ccc(Nc2ncc3cc(-c4c(Cl)cccc4Cl)c(=O)n(C)c3n2)cc1 [SB-601273]                   WEE2      %Inh        99.7%
6  Cc1ccc2c(-c3ccncc3)c(-c3ccc(F)cc3)nn2c1.Cl [GW461484]                   WEE2      %Inh           1%
7  Cc1cc2cn[nH]c2cc1-c1cccc2c(N)c(C(N)=O)nnc12                   WEE2      %Inh          29%
8  CN(C)CCOc1ccc(-c2cc(-c3c[nH]nc3-c3ccccn3)ccn2)cc1 [GW835314]                   WEE2      %Inh          11%
9  CCN(CC)CCCCNc1ncc2cc(-c3c(Cl)cccc3Cl)c(NC(=O)NC(C)(C)C)nc2n1                   WEE2      %Inh           3%
